# TESTED ON: Capsid scaffolding protein (Human cytomegalovirus (strain AD169) (HHV-5) (Human herpesvirus 5))
# Sequence (P16753 1-256 limits assumed): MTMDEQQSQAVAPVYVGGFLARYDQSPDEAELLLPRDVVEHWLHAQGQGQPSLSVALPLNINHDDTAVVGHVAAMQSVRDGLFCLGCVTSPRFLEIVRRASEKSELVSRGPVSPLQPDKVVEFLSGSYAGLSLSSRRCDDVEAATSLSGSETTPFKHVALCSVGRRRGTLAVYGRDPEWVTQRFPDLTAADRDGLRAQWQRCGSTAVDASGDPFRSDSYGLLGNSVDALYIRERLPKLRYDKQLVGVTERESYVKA
# PROTOCOL: Potency against human cytomegalovirus protease in HCMV pNA assay
Quick reference for pKi among some compounds
Please note pKi is a logarithmic value: minus log10 of concentration in mol/L. Answer with that number alone.

Sample CC(C)Oc1ccc(NC(=O)N2CCC[C@H]2C(=O)N2CC[C@H]3[C@H]2[C@H](C)C(=O)N3C(=O)C2CC2)cc1 — what was its pKi?
7.74

Consider the compound CCOC(=O)c1ccc2nc(N3C(=O)[C@@H](C)[C@@H]4[C@@H]3CCN4C(=O)[C@@H]3CCCN3C(=O)Nc3ccc(C(C)C)cc3)sc2c1 and give its measured pKi.
8.13

Please look up its pKi: CC(C)c1ccc(NC(=O)N2CCC[C@H]2C(=O)N2CC[C@H]3[C@H]2[C@H](C)C(=O)N3c2nccs2)cc1
6.35
